- Test system: excised human nerve tissue (or nerve extracts)
- measurement_description: Phage display library screening (Example 2), NEB tissue-binding peptides: nerve tissue and nerve extracts versus muscle
- test_conditions: unique sequence count, tissue target: neuron, peptides not binding muscle extracts
Recorded measurements of Count Neuron, one per entry
Reply: number alone, nothing else.

INSERT INTO results (biopolymer_sequence, reported_result) VALUES
  ('YSANSNPKKSLM', 6),
  ('HSGAYTIQASYK', 6),
  ('EFARFRVFGVAE', 8),
  ('YAGQNGWMRSDL', 17),
  ('GTALNLQKDINK', 6);

query: // fetch Count Neuron given entry NTEYSRYTSIWK
result: 6

query: // fetch Count Neuron given entry GMRTGDDSPKYP
result: 7

query: // fetch Count Neuron given entry GLWDGKGRIVEV
result: 7

query: // fetch Count Neuron given entry ALNHNGPVKTGL
result: 6

query: // fetch Count Neuron given entry FDPLSRNVPHKT
result: 6

* * *

Recorded measurements of Count, one per entry
- system_tested: Human Myelin Basic Protein (Homo sapiens)
- Sequence (P02686 134-304): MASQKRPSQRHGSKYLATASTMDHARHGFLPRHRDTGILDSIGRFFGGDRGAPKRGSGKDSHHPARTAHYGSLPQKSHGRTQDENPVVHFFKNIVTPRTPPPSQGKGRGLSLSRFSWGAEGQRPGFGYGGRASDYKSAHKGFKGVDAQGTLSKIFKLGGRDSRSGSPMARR
- measurement_description: Phage display library screening (Example 1, Power BI analysis), binding to Human Myelin Basic Protein
- Parameters: Enzo 200-606-M001 from human; purchased Enzo 200-606-M001; host or cells: human brain (tissue-derived)
- test_conditions: R3 Myelin Basic Protein, NextGen sequencing count of phage sequences distinct for this target
Reply: number alone, nothing else.

INSERT INTO assay_data (substance, reported_result) VALUES
  ('DPWVMLR (R3 Myelin Basic Protein-binding peptide)', 11),
  ('AGQLMRCANC (R3 Myelin Basic Protein-binding peptide)', 12),
  ('SPDRTSL (R3 Myelin Basic Protein-binding peptide)', 12),
  ('QNTGLKW (R3 Myelin Basic Protein-binding peptide)', 11);

query: // fetch Count given entry AGFPPNT (R3 Myelin Basic Protein-binding peptide)
result: 10

From: patent US20240207421A1
